# system_tested: PAK4 (Homo sapiens)
# Construct: purchased Life Technologies PV 4212
# Sequence (O96013 whole entry): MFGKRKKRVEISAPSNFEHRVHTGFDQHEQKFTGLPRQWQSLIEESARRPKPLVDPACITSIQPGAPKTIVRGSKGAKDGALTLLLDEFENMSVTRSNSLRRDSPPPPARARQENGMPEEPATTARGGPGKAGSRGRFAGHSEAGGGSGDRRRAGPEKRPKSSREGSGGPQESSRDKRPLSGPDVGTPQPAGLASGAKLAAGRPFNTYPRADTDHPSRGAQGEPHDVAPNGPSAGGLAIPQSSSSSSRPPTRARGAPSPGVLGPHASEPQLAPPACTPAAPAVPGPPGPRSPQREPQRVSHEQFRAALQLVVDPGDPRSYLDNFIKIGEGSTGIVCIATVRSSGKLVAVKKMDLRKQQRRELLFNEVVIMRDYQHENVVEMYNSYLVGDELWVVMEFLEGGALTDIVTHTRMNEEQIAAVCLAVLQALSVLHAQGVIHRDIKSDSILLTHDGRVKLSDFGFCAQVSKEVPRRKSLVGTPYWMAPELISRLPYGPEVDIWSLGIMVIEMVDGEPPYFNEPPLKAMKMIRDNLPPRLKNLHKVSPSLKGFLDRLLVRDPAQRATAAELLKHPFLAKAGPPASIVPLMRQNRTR
# protocol_summary: Z'-LYTE kinase selectivity assay PAK4
# Assay type: biochemical
experimental_endpoint: inhibition at 1 µM (%)

Reference set, count: 3
molecule	system_tested	inhibition at 1 µM [%]
CC(O)CN1CCN(CCn2ccc(Nc3ncc4c(n3)-c3c(nn(C)c3-c3ccccc3)C[C@H]4C)n2)CC1 (stereo partly shown)	PAK4 (Homo sapiens)	19
C[C@@H]1Cc2nn(C)c(-c3ccccc3)c2-c2nc(Nc3ccn(CCN4CCOCC4)n3)ncc21	PAK4 (Homo sapiens)	24
C[C@@H]1Cc2nn(C)c(-c3ccccc3)c2-c2nc(Nc3ccn(CCN4CCN(CC(=O)OC5CCOCC5)CC4)n3)ncc21	PAK4 (Homo sapiens)	21

I. C[C@@H]1Cc2nn(C)c(-c3ccccc3)c2-c2nc(Nc3ccn(CCN4CCN(CC(C)(C)O)CC4)n3)ncc21
II. COCCN1CCN(CCn2ccc(Nc3ncc4c(n3)-c3c(nn(C)c3-c3ccccc3)C[C@H]4C)n2)CC1
III. C[C@@H]1Cc2nn(C)c(-c3ccccc3)c2-c2nc(Nc3ccn(CCN4CCN(C)CC4)n3)ncc21
rank_up(items): orders items by reported inhibition at 1 µM in ascending numerical order. Labels, ranked as asked.
III, II, I

Hello, the source for this data is patent US10414769B2, in case you need it.
